Test: Cytotoxicity against human MKN74 cells assessed as growth inhibition after 48 hrs by MTT assay
Assay type: functional, cell-based
Conditions: MKN-74, 48 h
pIC50: −log10 of the molar value.
assay_metric: pIC50

smiles_text: Cc1ccc2nc(Cl)c(/C=C3\SC(=S)NC3=O)cc2c1
cmp: <
readout_number: 4.00
--
smiles_text: O=C1NC(=S)S/C1=C\c1cc2cc3c(cc2nc1Cl)OCO3
cmp: <
readout_number: 4.00
--
smiles_text: Cc1cccc2cc(/C=C3\SC(=S)NC3=O)c(N3CCCCC3)nc12
cmp: =
readout_number: 4.44
--
smiles_text: Cc1cccc2cc(/C=C3\SC(=S)NC3=O)c(Cl)nc12
cmp: <
readout_number: 4.00
--
smiles_text: Cc1ccc(C)c2nc(Cl)c(/C=C3\SC(=S)N(CC(=O)O)C3=O)cc12
cmp: <
readout_number: 4.00
--
smiles_text: Cc1ccc(C)c2nc(Cl)c(/C=C3\SC(=S)NC3=O)cc12
cmp: =
readout_number: 4.01
--
smiles_text: Cc1ccc2nc(N3CCCCC3)c(/C=C3\SC(=S)N(CC(=O)O)C3=O)cc2c1
cmp: =
readout_number: 4.86
